SYSTEM: FMV N full length (Nfl) (Fig mosaic virus (Fimoviridae, …, UniProt I2FFM8 1-315))
PROCEDURE DETAILS: fluorescence polarization; RNA 1 uM; ITC: 20 mM Tris pH 7.4, 150 mM NaCl, 5% glycerol, 5 mM beta-ME, 25 C; FP: 1 uM RNA, 37 C 20 min incubation, buffer not stated (protein stock 20 mM Tris pH 7.5)
CONDITION CONTEXT: protein: recombinant; tags: N-terminal 6xHis removed by TEV; chain copies: 4; label: 5' 6-carboxyfluorescein (FAM); single strand
VALUE KIND: Kd

| BINDER | VALUE KIND | RESULT |
| --- | --- | --- |
| UUUUUUUUUUUUUUUUUUUUUUUUUUUUUUUUUUUUUUUUUU (ssRNA) [poly(rU) 42-mer, FAM] | Kd | ~5 µM |
